Recorded activity [%] (%-substrate conversion after 20 min incubation) by entry
- target-or-system: R140Q IDH2 (Homo sapiens, UniProt P48735, R140Q)
- Construct: made in house; host or cells: Sf21 insect cells (cell pellets prepared at Evotec)
- assay-name: Absorbance assay, variant activity in the presence of equimolar 2OG (inhibition screen)
- Assay type: biochemical
measured-endpoint: activity [%] (%-substrate conversion after 20 min incubation)

>>> result("O=C(O)/C=C(/CC(=O)O)C(=O)O [cis-aconitic acid]")
"119 ± 12%"
>>> result("O=C1CC(C(=O)O)C(C(=O)O)O1 (racemic)")
"118 ± 18%"
>>> result("O=C(O)CC(C(=O)O)C(O)C(=O)O (racemic)")
"64 ± 3%"
>>> result("O=C(O)CC(O)(CC(=O)O)C(=O)O")
"122 ± 14%"

====

- target-or-system: WT IDH2 (Homo sapiens, UniProt P48735)
- Construct: made in house; host or cells: Sf21 insect cells (cell pellets prepared at Evotec)
- Sequence (P48735 40-452): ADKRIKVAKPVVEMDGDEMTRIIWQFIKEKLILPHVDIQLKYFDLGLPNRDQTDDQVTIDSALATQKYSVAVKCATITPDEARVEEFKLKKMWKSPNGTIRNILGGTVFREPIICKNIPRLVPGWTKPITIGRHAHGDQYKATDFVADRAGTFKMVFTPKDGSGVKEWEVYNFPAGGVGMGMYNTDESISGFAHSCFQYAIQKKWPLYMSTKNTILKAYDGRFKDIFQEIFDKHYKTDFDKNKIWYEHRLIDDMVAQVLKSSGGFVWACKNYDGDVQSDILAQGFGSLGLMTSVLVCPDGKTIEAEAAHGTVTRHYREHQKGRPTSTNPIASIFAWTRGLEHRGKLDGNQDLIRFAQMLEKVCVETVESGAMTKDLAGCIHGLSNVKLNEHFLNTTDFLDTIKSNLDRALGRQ
- assay-name: Absorbance assay, WT activity in the presence of equimolar DL-isocitrate (inhibition)
- Format: biochemical
- cond: […] isocitrate and […] test compound, 75 μM NADP+, 2.0 nM WT IDH2
- Procedure: Compounds were dispensed using a CyBio SDW-CW CyBi-Well Simultaneous Pipettor and assay started using a ThermoFisher Multidrop Combi reagent dispenser. Reactions were performed as technical quadruplicates.
measured-endpoint: activity [%] (%-substrate conversion after 20 min incubation) (%)

>>> number("O=C(O)CC(Cc1ccccc1)C(=O)C(=O)O (centres unmarked) [compound 7, 3-benzyl-2OG]")
99
>>> number("CC1(C)c2ccccc2-c2ccc(CC(CC(=O)O)C(=O)C(=O)O)cc21 (racemic) [compound 11]")
96
>>> number("CC(CC(=O)C(=O)O)C(=O)O (centres unmarked) [compound 12, 4-methyl-2OG]")
100
>>> number("CCCC(CC(=O)O)C(=O)C(=O)O (racemic) [compound 3]")
96
>>> number("O=C(O)C(=O)C1CC1C(=O)O (mixture of isomers) [compound 21]")
95

====

- target-or-system: R132H IDH1 (Homo sapiens, UniProt O75874, R132H)
- Sequence (O75874 whole entry R132H): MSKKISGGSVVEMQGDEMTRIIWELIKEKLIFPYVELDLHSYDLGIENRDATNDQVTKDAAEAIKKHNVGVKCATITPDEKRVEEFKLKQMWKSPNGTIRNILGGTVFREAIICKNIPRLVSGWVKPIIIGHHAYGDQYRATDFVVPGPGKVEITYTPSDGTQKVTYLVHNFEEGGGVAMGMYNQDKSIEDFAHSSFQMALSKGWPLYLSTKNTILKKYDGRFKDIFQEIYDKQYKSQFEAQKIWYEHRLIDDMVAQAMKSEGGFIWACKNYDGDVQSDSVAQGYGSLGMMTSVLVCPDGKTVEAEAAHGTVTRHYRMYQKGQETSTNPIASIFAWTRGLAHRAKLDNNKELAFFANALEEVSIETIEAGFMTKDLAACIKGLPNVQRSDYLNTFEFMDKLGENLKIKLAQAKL
- assay-name: Absorbance assay, variant activity in the presence of equimolar 2OG (inhibition screen)
- Assay type: biochemical
- Parameters: made in house; host or cells: Escherichia coli BL21(DE3) pLyS
- cond: […] 2OG and […] test compound, 0.03 μM R132H IDH1, 50 μM NADPH
- Experimental: Compounds were dispensed using a CyBio SDW-CW CyBi-Well Simultaneous Pipettor and assay started using a ThermoFisher Multidrop Combi reagent dispenser. Reactions were performed as technical quadruplicates.
Quick rule for you: activity [%] (%-substrate conversion after 20 min incubation) at 90% or higher means Met, lower means Not met.

>>> category_label("CC(C(=O)O)C(C)C(=O)O (stereo not drawn)")
"Met"
>>> category_label("O=C(O)CC(=O)C(=O)O")
"Met"
>>> category_label("CC(C)(C)CCC(CC(=O)C(=O)O)C(=O)O (racemic)")
"Met"
>>> category_label("O=C(O)/C=C/C(=O)O")
"Not met"
>>> category_label("O=C(O)CC(S)C(=O)O (stereo not drawn)")
"Met"

====

- target-or-system: R140Q IDH2 (Homo sapiens, UniProt P48735, R140Q)
- Construct: made in house; host or cells: Sf21 insect cells (cell pellets prepared at Evotec)
- assay-name: Absorbance assay, variant activity in the presence of equimolar 2OG (inhibition screen)
- Type: biochemical
- cond: 6.0 mM 2OG and 6.0 mM test compound, 0.03 μM R140Q IDH2, 50 μM NADPH
Counter-ions that a name gives are not always drawn.
measured-endpoint: activity [%] (%-substrate conversion after 20 min incubation) (%)

>>> number("N[C@@H](CCCC(=O)O)C(=O)O")
82
>>> number("C=C(CC(=O)O)C(=O)O")
96
>>> number("O=C(O)CC(=O)CC(=O)O")
109
>>> number("CC(CC(=O)C(=O)O)C(=O)O (stereo not drawn)")
281
>>> number("COC(=O)/C=C/C(=O)OC [dimethyl fumarate]")
61
>>> number("O=C(O)C(=O)CC(CCCc1ccccc1)C(=O)O (racemic)")
101
>>> number("O=C(O)CCCC(=O)C(=O)O")
94
>>> number("O=C(O)CCC(O)C(=O)O (racemic) [DL-2-hydroglutaric acid]")
98
>>> number("O=C(O)CC(=O)C(=O)O")
110

====

- target-or-system: R172K IDH2 (Homo sapiens, UniProt P48735, R172K)
- Construct: made in house; host or cells: Sf21 insect cells (cell pellets prepared at Evotec)
- Sequence (P48735 40-452 R172K): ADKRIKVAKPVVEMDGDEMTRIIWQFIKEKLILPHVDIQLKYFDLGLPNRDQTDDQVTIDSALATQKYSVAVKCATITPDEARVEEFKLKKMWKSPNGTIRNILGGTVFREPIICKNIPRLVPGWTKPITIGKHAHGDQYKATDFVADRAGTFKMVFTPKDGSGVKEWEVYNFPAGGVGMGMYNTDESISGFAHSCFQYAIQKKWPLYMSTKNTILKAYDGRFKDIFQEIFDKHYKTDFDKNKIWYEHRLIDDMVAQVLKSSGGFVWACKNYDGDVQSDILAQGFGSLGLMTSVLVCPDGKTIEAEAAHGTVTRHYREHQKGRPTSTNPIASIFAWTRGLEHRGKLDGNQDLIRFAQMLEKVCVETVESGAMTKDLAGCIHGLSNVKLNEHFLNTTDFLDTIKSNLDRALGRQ
- assay-name: Absorbance assay, variant activity in the presence of equimolar 2OG (inhibition screen)
- Format: biochemical
- cond: 1.0 mM 2OG and 1.0 mM test compound, 0.03 μM R172K IDH2, 50 μM NADPH
Reported activity [%] (%-substrate conversion after 20 min incubation) values for the following compounds.
measured-endpoint: activity [%] (%-substrate conversion after 20 min incubation) (%)

>>> number("O=C(O)CCCC(=O)C(=O)O")
96
>>> number("CC(C(=O)O)C(C)C(=O)O (centres unmarked)")
99
>>> number("CC[C@H](C)C(=O)C(=O)O")
94
>>> number("O=C(O)C(=O)CC(Cc1ccc2ccccc2c1)C(=O)O (racemic)")
51
>>> number("CC(CC(=O)C(=O)O)C(=O)O (centres unmarked)")
112

====

- target-or-system: R140Q IDH2 (Homo sapiens, UniProt P48735, R140Q)
- Construct: made in house; host or cells: Sf21 insect cells (cell pellets prepared at Evotec)
- assay-name: Absorbance assay, variant activity in the presence of equimolar 2OG (inhibition screen)
- Type: biochemical
- cond: 6.0 mM 2OG and 6.0 mM test compound, 0.03 μM R140Q IDH2, 50 μM NADPH
measured-endpoint: activity [%] (%-substrate conversion after 20 min incubation) (%)

>>> number("NC(=O)C(=O)O [oxamic acid]")
117
>>> number("C/C(=C\\C(=O)O)C(=O)O [mesaconic acid]")
116
>>> number("COC(=O)CC(C)C(=O)OC (racemic) [DL-dimethyl 2-methylsuccinate]")
116
>>> number("CSCCC(=O)C(=O)O [4-methylthio-2-oxobutyric acid]")
99
>>> number("CC(C(=O)O)C(C)C(=O)O (stereo not shown) [1,2-dimethylsuccinic acid]")
110
>>> number("O=C(O)CNC(=O)C(=O)O [NOG, N-oxalylglycine, reference compound]")
12
>>> number("O=C(O)CC(Cc1ccccc1)C(=O)C(=O)O (stereo not shown) [compound 7, 3-benzyl-2OG]")
91
>>> number("CCCC(CC(=O)C(=O)O)C(=O)O (racemic) [compound 15]")
116
>>> number("NC(CCC(=O)O)C(=O)O (racemic) [DL-glutamic acid]")
94
>>> number("O=C(O)CC(CCCc1ccccc1)C(=O)C(=O)O (racemic) [compound 6]")
239

====

- target-or-system: R140Q IDH2 (Homo sapiens, UniProt P48735, R140Q)
- Construct: made in house; host or cells: Sf21 insect cells (cell pellets prepared at Evotec)
- assay-name: Absorbance assay, variant activity in the presence of equimolar 2OG (inhibition screen)
- Assay type: biochemical
- cond: 6.0 mM 2OG and 6.0 mM test compound, 0.03 μM R140Q IDH2, 50 μM NADPH
Counter-ions that a name gives are not always drawn.
Below: a set of entries, each annotated with reported activity [%] (%-substrate conversion after 20 min incubation).
measured-endpoint: activity [%] (%-substrate conversion after 20 min incubation) (%)

>>> number("CCOC(=O)/C=C/C(=O)O [mono-ethyl fumarate]")
108
>>> number("O=C(O)[C@@H]1CCCN1")
106
>>> number("O=C(O)C(=O)c1cscc1C(=O)O")
113
>>> number("CCCCC(CC(=O)O)C(=O)C(=O)O (centres unmarked)")
753
>>> number("O=C(O)C(=O)C1CC1C(=O)O (mixture of isomers)")
394
>>> number("O=C(O)C(=O)CS")
91
>>> number("O=CC(=O)O")
105
>>> number("CC(O)C(=O)O (racemic)")
115
>>> number("CCCCC(CC(=O)C(=O)O)C(=O)O (racemic)")
131
>>> number("CC(C)(C)CCC(CC(=O)O)C(=O)C(=O)O (racemic)")
146
>>> number("O=C(O)CC(S)C(=O)O (centres unmarked)")
91

Origin of the recorded values: paper PMC9939733
